- Test system: MCF7
- assayMethodText: Antiproliferative activity against human MCF7 cells by MTT assay
- Format: functional, cell-based
reportedMetric: IC50

// known answers, use as guide
>>> experimentalresult("C=C1[C@H]2[C@@H]([C@@H]([C@H](C)OC(C)=O)C(=O)[C@H]2OC(=O)C(C)CC)[C@H](C(C)C)C[C@H]1OC(=O)/C=C(\\C)CC (some centres undefined)")
"12.8 µM"
>>> experimentalresult("C=C(C1C[C@@H]2O[C@]2(C)C(=O)[C@H]1OC(=O)/C(C)=C\\C)[C@H](CC=C(C)C)OC(=O)/C(C)=C\\C (some centres undefined)")
"> 10 µM"

QUERY: Item under review: C/C=C1\C(=O)[C@@H](OC(=O)C(C)CC)[C@@H]2[C@@H]1[C@H](C(C)C)C[C@@H](OC(=O)/C=C(\C)CC)C2(O)CN=[N+]=[N-] (some centres undefined) . Reported IC50?
RESULT: 14.1 µM

QUERY: Then C=C(C1C[C@@H]2O[C@]2(C)C(=O)[C@H]1OC(C)=O)[C@H](CC=C(C)C)OC(=O)/C(C)=C\C (some centres undefined) ?
RESULT: > 10 µM

QUERY: Can you handle C=C(C1[C@H](OC(C)=O)C(=O)[C@@]2(C)O[C@H]2[C@@H]1OC(C)=O)[C@H](CC=C(C)C)OC(=O)/C(C)=C\C (some centres undefined) next?
RESULT: > 10 µM

* * *

- System: MCF7
- assayMethodText: Antiproliferative activity against human MCF7 cells by MTT assay
- Assay type: functional, cell-based
// reported IC50 for each item listed

The examples below pair each entry with its known result.
>>> experimentalresult("C/C=C1\\C(=O)[C@@H](OC(=O)C(C)CC)[C@@H]2[C@@H]1[C@H](C(C)C)C[C@@H](OC(=O)/C=C(\\C)CC)C21CO1 (some centres undefined)")
"17.6 µM"
>>> experimentalresult("C=C1[C@H](OC(=O)/C=C(\\C)CC)C[C@@H](C(C)C)[C@@H]2/C(=C\\C)C(=O)C[C@@H]12")
"> 10 µM"
>>> experimentalresult("C=C1[C@H](OC(=O)/C=C(\\C)CC)C[C@@H](C(C)C)[C@@H]2/C(=C/C)C(=O)C[C@@H]12")
"> 10 µM"

QUERY: Which IC50 value is on record for `C=C1[C@H](OC(=O)/C=C(\C)CC)C[C@@H](C(C)C)[C@@H]2[C@@H]([C@H](C)OC(C)=O)C(=O)C[C@@H]12` ?
RESULT: > 10 µM
